- test target: S. pyogenes SKKanGAS, kanamycin survival, BacTiterGlo, 6 h
- protocol details: S. pyogenes SKKanGAS kanamycin growth inhibitors – SKKanGAS strain, luminescence, dose confirmation, streptokinase promoter inhibitor project, dose response (AID 1902);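 active = EC50 no more than a set limit of log units above the highest dose; inactive = the rest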;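 note: lower survival reflects blocked streptokinase promoter driving kanamycin resistance gene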
Write down the outcome that applies. Available outcomes: active, inactive

compound=O=C(Nc1cccc(-c2csc(Nc3ccc(Cl)cc3)n2)c1)c1ccccc1 assigned_label=active

Tell me the assay call for Cc1ccc(C2CC(c3cccs3)=NN2C(=O)c2ccc(Br)o2)cc1 (stereo not given) please. active

What classification did Cc1ccc(S(=O)(=O)/N=C2\C=C(Nc3cccc(C(=O)O)c3)C(=O)c3ccccc32)cc1 end up with in this test? active

Please let me know the test result on file for COc1ccc(-c2nnc(NC(=O)c3ccc(S(=O)(=O)N4CCCc5ccccc54)cc3)o2)cc1 . active

----------
- test target: S. pyogenes SKKanGAS, kanamycin survival, BacTiterGlo, 6 h
- protocol details: S. pyogenes SKKanGAS kanamycin growth inhibitors – SKKanGAS strain, luminescence, dose confirmation, streptokinase promoter inhibitor project, dose response (AID 1902);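 note: lower survival reflects blocked streptokinase promoter driving kanamycin resistance gene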
The source made the active and inactive calls.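 How the source made its calls: active means EC50 no more than a set limit of log units above the highest dose; inactive means the rest.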
quantity name: EC50

Some solved cases for reference:
compound="CC1CCN(c2nc3ccccc3nc2C(C#N)C(=O)NC2CCCCC2)CC1 (stereo not given)" test_target="S. pyogenes SKKanGAS, kanamycin survival, BacTiterGlo, 6 h" value="1900 nM"
compound=Cc1nc(N)sc1-c1csc(N(C)c2ccc(O)cc2)n1 test_target="S. pyogenes SKKanGAS, kanamycin survival, BacTiterGlo, 6 h" value="3570 nM"
compound=COc1ccc(O)c(/C=N/Nc2nc(Nc3ccccc3)nc(-n3nc(C)cc3C)n2)c1 test_target="S. pyogenes SKKanGAS, kanamycin survival, BacTiterGlo, 6 h" value="868 nM"
compound=Cc1cc(NC(=O)/C=C/c2ccccc2Cl)n(-c2nc3ccccc3[nH]2)n1 test_target="S. pyogenes SKKanGAS, kanamycin survival, BacTiterGlo, 6 h" value="1900 nM"
compound=O=C(Nc1cc(Cl)ccc1-n1cncn1)c1ccc([N+](=O)[O-])o1 test_target="S. pyogenes SKKanGAS, kanamycin survival, BacTiterGlo, 6 h" value="6730 nM"
compound=CC(C)CC(=O)NC(=S)NNC(=O)c1ccc(NC(=O)C2CCCCC2)cc1 test_target="S. pyogenes SKKanGAS, kanamycin survival, BacTiterGlo, 6 h" value="546 nM"

# return recorded EC50 for entry COCC1CCN(C(=O)CCc2nnc(C3(c4ccc(Cl)cc4)CCC3)o2)C1 (stereo not given) > 15000 nM (inactive)

Tell me EC50 reported for Cc1cc(C)c2nc(-c3ccncc3)cc(C(=O)N3CCN(Cc4ccccc4Cl)CC3)c2c1 4720 nM

// Input: CC1(C)COCN1S(=O)(=O)c1ccc(C(=O)Nc2nnc(-c3ccc(Cl)s3)o2)cc1 . Output its EC50 only. 459 nM

Entry O=C1C(Cl)=C(Nc2ccc3cn[nH]c3c2)C(=O)c2ccccc21 needs its EC50 filled in; supply it. 2210 nM

----------
- test target: S. pyogenes SKKanGAS, kanamycin survival, BacTiterGlo, 6 h
- protocol details: S. pyogenes SKKanGAS kanamycin growth inhibitors – SKKanGAS strain, luminescence, dose confirmation, streptokinase promoter inhibitor project, dose response (AID 1902);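 note: lower survival reflects blocked streptokinase promoter driving kanamycin resistance gene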
compounds and their reported EC50

compound=COc1cc([N+](=O)[O-])cc(/C=N/NC(=O)c2ccc(C)nc2)c1O value="2610 nM"
compound=CCCN(CC1CC1)c1nc(C)nc(Nc2c(Cl)cc(Cl)cc2Cl)c1Cl value="1260 nM"
compound=O=C(CCC(=O)Nc1cc(C(F)(F)F)ccc1Cl)N/N=C\c1cc([N+](=O)[O-])ccc1O value="658 nM"
compound=O=C(Cc1ccc([N+](=O)[O-])cc1)N/N=C/c1ccc([N+](=O)[O-])o1 value="9860 nM"
compound=Cc1cc(C)c2nc(NNC(=O)c3cc(=O)c4ccccc4o3)sc2c1 value="165 nM"

Please list EC50 recorded for the compound C=CCn1c(COc2ccccc2)nnc1SC(C)C(=O)N/N=C/c1cc(Cl)ccc1O (stereo not given) 1700 nM

Supply EC50 value. Item: Cc1ccc(OP(=O)(Nc2cccc(C)c2)Oc2ccc(C)cc2)cc1 9090 nM

Give the reported value of EC50 for this record: CC(C)Nc1nc(Oc2cccc(Cl)c2Cl)cc(C(F)(F)F)n1 5290 nM

Consider the compound COc1ccc(-c2c(C#N)c(N)nc3sc(C(=O)c4ccccc4)c(N)c23)cc1 and give its recorded EC50. 5900 nM

Determine from records and report EC50 for O=C(/C=C/c1ccccc1)NC(=S)NNC(=O)c1ccco1 2760 nM
